Listed below: esterase sensitivity (activity 20,000 U/l) values for each entry.
tested on: carboxyl esterase (EC 3.1.1.1); assay: esterase sensitivity; type: biochemical; conditions: 100 μl carboxyl esterase about 20,000 U/l; 578 nm

compound | reported
CCCCCCOCC(COC(=O)CCCC(=O)Oc1ccc2nc3ccc(=O)cc-3oc2c1)OCCCCCC (racemic) | > 1000 ΔmE/min
CCCCCCCCOCC(COC(=O)CCCC(=O)Oc1ccc2nc3ccc(=O)cc-3oc2c1)OCCCCCCCC (racemic) | 144.0 ΔmE/min
CCCCCCCCCCOCC(COC(=O)CCCC(=O)Oc1ccc2nc3ccc(=O)cc-3oc2c1)OCCCCCCCCCC (racemic) | 30.2 ΔmE/min

Ask | Which esterase sensitivity (activity 20,000 U/l) is listed for CCCCCCCCCCOCC(COC(=O)CCCCCC(=O)Oc1ccc2nc3ccc(=O)cc-3oc2c1)OCCCCCCCCCC (racemic) ?
Reply | 48.7 ΔmE/min

Ask | Next compound: CCCCCCCCOCC(COC(=O)CCCCCCCC(=O)Oc1ccc2nc3ccc(=O)cc-3oc2c1)OCCCCCCCC (racemic)
Reply | 33.6 ΔmE/min

Ask | Next compound: CCCCCCCCCCCCCCCCOC[C@H](COC(=O)CCCC(=O)Oc1ccc2nc3ccc(=O)cc-3oc2c1)OCCCCCCCCCCCCCCCC
Reply | 1.8 ΔmE/min

Ask | Next compound: CCCCCCCCOCC(COC(=O)CCCCCC(=O)Oc1ccc2nc3ccc(=O)cc-3oc2c1)OCCCCCCCC (racemic)
Reply | 112.5 ΔmE/min

###

test system: carboxyl esterase (EC 3.1.1.1); experiment: esterase sensitivity; type: biochemical; settings: 100 μl carboxyl esterase about 20,000 U/l; 578 nm
assay-readout: esterase sensitivity (activity 20,000 U/l)

Look over these answered cases.
compound | reported
CCCCCCCCCCCCOCC(COC(=O)CCCC(=O)Oc1ccc2nc3ccc(=O)cc-3oc2c1)OCCCCCCCCCCCC (racemic) | 34.8 ΔmE/min
CCCCCCCCCCCOCC(COC(=O)CCCC(=O)Oc1ccc2nc3ccc(=O)cc-3oc2c1)OCCCCCCCCCCC (racemic) | 23.6 ΔmE/min
CCCCCCCCCCCCOCC(COC(=O)CCCCCC(=O)Oc1ccc2nc3ccc(=O)cc-3oc2c1)OCCCCCCCCCCCC (racemic) | 27.8 ΔmE/min

Below: the item to evaluate.
Ask | Which esterase sensitivity (activity 20,000 U/l) is listed for CCCCCCCCCCCCOCC(COC(=O)CCCCCCCC(=O)Oc1ccc2nc3ccc(=O)cc-3oc2c1)OCCCCCCCCCCCC (racemic) ?
Reply | 9.5 ΔmE/min

###

tested on: carboxyl esterase (EC 3.1.1.1); test: esterase sensitivity; type: biochemical; details: emulsion prepared as in Example 22
Outcome label depends on Esterase sensitivity relative to 1 mE/min: at/above gives Met, below gives Not met.

compound | tested-target | cat
CCCCCCCCCCCCOCC(COC(=O)CCCCCCCCCCCCC(=O)Oc1ccc2nc3ccc(=O)cc-3oc2c1C)OCCCCCCCCCCCC (racemic) | carboxyl esterase (EC 3.1.1.1) | Not met
CCCCCCCCCCCCOCC(CSC(=O)CCCC(=O)Oc1ccc2nc3ccc(=O)cc-3oc2c1C)OCCCCCCCCCCCC (racemic) | carboxyl esterase (EC 3.1.1.1) | Met
CCCCCCCCCCCCCCCCC(COCC(COC(=O)CCCC(=O)Oc1ccc2nc3ccc(=O)cc-3oc2c1C)OC)OC (racemic) | carboxyl esterase (EC 3.1.1.1) | Met

Switching to the query record.
Ask | Decide: is the reported value of Esterase sensitivity for CCCCCCCCCCCCSCC(COC(=O)CCCC(=O)Oc1ccc2nc3ccc(=O)cc-3oc2c1C)SCCCCCCCCCCCC (racemic) equal to or greater than 1 mE/min?
Reply | Met

Data origin: patent US4988497A
